Assay: Half life in male CD-1 mouse at 5mg/kg, po
Type: ADME, organism-based
Settings: in vivo
ENDPOINT LABEL: half-life (h)
// units = h; emit number, no label

Recorded half-life (molecule Cc1n[nH]c(C)c1N1CCN(c2cc(C(=O)O)ccc2F)CC1 ): 5.38

====

Experiment: in vivo
Settings: male, CD-1, mouse, iv, 2 mg/kg
ENDPOINT LABEL: C0

Lab book: C0 of Cc1n[nH]c(C)c1N1CCN(c2cc(C(=O)O)ccc2F)CC1 noted as 1620 ng/mL

====

Assay: AUC in male CD-1 mouse at 2 mg/kg, iv
Format: ADME, organism-based
Parameters: dose 2 mg/kg
Conditions: in vivo
ENDPOINT LABEL: AUC (ng·h/mL)
Field: numeric (ng·h/mL). Do not append units.

AUC for Cc1n[nH]c(C)c1N1CCN(c2cc(C(=O)O)ccc2F)CC1 is 6240

====

pIC50: −log10 of the molar value.
ENDPOINT LABEL: pIC50

Simply: Cc1n[nH]c(C)c1N1CCN(c2cc(C(=O)O)ccc2C(F)(F)F)CC1 , Retinol-binding protein 4 (Homo sapiens, UniProt P02753), pIC50 = < 5.52

Item: Cc1n[nH]c(C)c1CCCOc1cc(C(=O)O)ccc1F [ACORAMIDIS] | System: Retinol-binding protein 4 (Homo sapiens, UniProt P02753) | pIC50: < 4.52

// pIC50 (Retinol-binding protein 4 (Homo sapiens, UniProt P02753)) for O=C(O)c1ccc(F)c(N2CCN(c3ccccc3C(F)(F)F)CC2)c1 = < 5.52

Short answer on Retinol-binding protein 4 (Homo sapiens, UniProt P02753) for O=C(O)c1ccc(F)c(N2CCN(c3nn[nH]n3)CC2)c1 , pIC50: < 5.52

Tested on Retinol-binding protein 4 (Homo sapiens, UniProt P02753): Cc1n[nH]c(C)c1N1C[C@H]2CN(c3cc(C(=O)O)ccc3F)C[C@H]2C1 . Observed pIC50: < 5.52

Hey, Retinol-binding protein 4 (Homo sapiens, UniProt P02753) data for Cc1n[nH]c(C)c1N1CCN(c2cc(C(=O)O)ccc2F)CC1 : pIC50 came out at < 5.52

The measured pIC50 that Cc1n[nH]c(C)c1N1CCN(c2cc(-c3nn[nH]n3)ccc2F)CC1 showed for Retinol-binding protein 4 (Homo sapiens, UniProt P02753) is < 5.52

Measured pIC50 (Retinol-binding protein 4 (Homo sapiens, UniProt P02753)), entry O=C(O)c1ccc2nc(-c3cc(Cl)cc(Cl)c3)oc2c1 : < 4.52

Noted pIC50 for Cc1n[nH]c(C)c1N1CCC2(CCN(c3cc(C(=O)O)ccc3F)C2)C1 (racemic) , tested on Retinol-binding protein 4 (Homo sapiens, UniProt P02753): < 5.52

Sample Cc1n[nH]c(C)c1N1CCN(c2cc(C(N)=O)ccc2F)CC1 , system: Retinol-binding protein 4 (Homo sapiens, UniProt P02753). Its pIC50 is < 5.52

Tested on Retinol-binding protein 4 (Homo sapiens, UniProt P02753), the item Cc1n[nH]c(C)c1N1CCN(c2cccc(C(=O)O)c2)CC1 showed pIC50 equal to < 4.52

pIC50 value, target or system Retinol-binding protein 4 (Homo sapiens, UniProt P02753), for Cc1n[nH]c(C)c1N1CCN(c2ccc(F)c(C(=O)O)c2)CC1 : < 5.52

Case Cc1cc(F)c(N2CCN(c3c(C)n[nH]c3C)CC2)cc1C(=O)O , Retinol-binding protein 4 (Homo sapiens, UniProt P02753), pIC50 recorded as < 5.52

====

Assay: Cmax in male CD-1 mouse at 5 mg/kg, po
Type: ADME, organism-based
Set-up: route oral, dose 5 mg/kg
Details: in vivo
ENDPOINT LABEL: Cmax (ng/mL)
The figure you give is taken to be in ng/mL; do not add the unit.

Value of Cmax reported for the compound Cc1n[nH]c(C)c1N1CCN(c2cc(C(=O)O)ccc2F)CC1 is 1560

====

Molecular target: Peroxisome proliferator-activated receptor gamma (Homo sapiens)
Sequence (P37231 whole entry): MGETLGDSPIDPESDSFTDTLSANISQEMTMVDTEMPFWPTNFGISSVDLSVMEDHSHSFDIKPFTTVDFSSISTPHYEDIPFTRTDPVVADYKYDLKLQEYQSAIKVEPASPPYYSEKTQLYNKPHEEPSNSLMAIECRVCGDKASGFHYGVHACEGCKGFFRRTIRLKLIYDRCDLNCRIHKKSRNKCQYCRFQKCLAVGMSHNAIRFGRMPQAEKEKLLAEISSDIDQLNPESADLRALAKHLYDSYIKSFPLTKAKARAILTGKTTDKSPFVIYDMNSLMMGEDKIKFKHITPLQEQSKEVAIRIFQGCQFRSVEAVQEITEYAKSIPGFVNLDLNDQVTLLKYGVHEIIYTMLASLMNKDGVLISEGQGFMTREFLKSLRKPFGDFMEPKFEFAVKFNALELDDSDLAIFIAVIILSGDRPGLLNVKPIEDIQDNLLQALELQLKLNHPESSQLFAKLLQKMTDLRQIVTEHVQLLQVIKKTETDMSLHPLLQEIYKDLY
Assay: Activity at PPARgamma (unknown origin)
pEC50: −log10 of the molar value.
ENDPOINT LABEL: pEC50

Recorded pEC50 (compound Cc1n[nH]c(C)c1N1CCN(c2cc(C(=O)O)ccc2F)CC1 ): < 4.52

====

Assay: AUClast in male CD-1 mouse at 2 mg/kg, iv
Assay type: ADME, organism-based
Parameters: route intravenous, time 0 - last, dose 2 mg/kg
Details: in vivo
ENDPOINT LABEL: AUC(0-t) (ng·h/mL)
Report the figure in ng·h/mL without appending any unit label.

Query Cc1n[nH]c(C)c1N1CCN(c2cc(C(=O)O)ccc2F)CC1 yields AUC(0-t) of 6210

====

Target: UniProtKB P11712
Sequence (P11712 whole entry): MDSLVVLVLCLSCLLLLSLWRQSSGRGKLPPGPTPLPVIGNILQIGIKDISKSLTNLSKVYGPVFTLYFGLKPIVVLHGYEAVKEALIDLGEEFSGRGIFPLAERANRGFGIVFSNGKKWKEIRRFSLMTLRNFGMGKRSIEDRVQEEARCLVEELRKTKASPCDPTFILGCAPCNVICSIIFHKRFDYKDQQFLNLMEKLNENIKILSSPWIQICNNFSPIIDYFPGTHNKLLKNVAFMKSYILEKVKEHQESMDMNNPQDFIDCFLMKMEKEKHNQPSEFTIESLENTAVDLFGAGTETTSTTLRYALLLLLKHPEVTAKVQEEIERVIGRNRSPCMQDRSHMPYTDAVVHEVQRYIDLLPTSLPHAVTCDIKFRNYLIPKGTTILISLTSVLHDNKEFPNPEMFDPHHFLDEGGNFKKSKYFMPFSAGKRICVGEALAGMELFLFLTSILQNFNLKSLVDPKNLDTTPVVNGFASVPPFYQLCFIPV
Assay: Inhibition of CYP2C9 (unknown origin) at 10 uM relative to control
Assay type: ADME
Classify by measured inhibition at 10 µM: t if it is equal to or exceeds 20%, f if it is smaller.

Prompt: Please tell me: is the molecule Cc1n[nH]c(C)c1N1CCN(c2cc(C(=O)O)ccc2Cl)CC1 at or over 20% in terms of inhibition at 10 µM?
Completion: t

Prompt: Is inhibition at 10 µM for Cc1n[nH]c(C)c1N1CCN(c2cc(-c3nn[nH]n3)ccc2F)CC1 at or above 20%?
Completion: t

Prompt: Exam item: decide whether the reported inhibition at 10 µM for Cc1ccc(C(=O)O)cc1N1CCN(c2c(C)n[nH]c2C)CC1 is at least 20%.
Completion: t

Prompt: Check if inhibition at 10 µM >= 20% (inclusive). Item: Cc1cc(F)c(N2CCN(c3c(C)n[nH]c3C)CC2)cc1C(=O)O
Completion: f

Prompt: API: above_or_equal(metric=inhibition at 10 µM, cutoff=20%) for item Cc1n[nH]c(C)c1N1CCN(c2cc(C(=O)O)ccc2F)CC1
Completion: f

Prompt: Check the entry Cc1n[nH]c(C)c1N1CCN(c2cc(C(=O)O)ccc2C(F)(F)F)CC1 : does inhibition at 10 µM equal or exceed 20%?
Completion: f

====

ENDPOINT LABEL: IC50

Form field IC50 for item Cc1n[nH]c(C)c1N1CCN(c2cc(C(=O)O)ccc2F)CC1 on UniProt Q12809: > 30 µM

====

Target: CYP2D6 (Homo sapiens)
Sequence (P10635 whole entry): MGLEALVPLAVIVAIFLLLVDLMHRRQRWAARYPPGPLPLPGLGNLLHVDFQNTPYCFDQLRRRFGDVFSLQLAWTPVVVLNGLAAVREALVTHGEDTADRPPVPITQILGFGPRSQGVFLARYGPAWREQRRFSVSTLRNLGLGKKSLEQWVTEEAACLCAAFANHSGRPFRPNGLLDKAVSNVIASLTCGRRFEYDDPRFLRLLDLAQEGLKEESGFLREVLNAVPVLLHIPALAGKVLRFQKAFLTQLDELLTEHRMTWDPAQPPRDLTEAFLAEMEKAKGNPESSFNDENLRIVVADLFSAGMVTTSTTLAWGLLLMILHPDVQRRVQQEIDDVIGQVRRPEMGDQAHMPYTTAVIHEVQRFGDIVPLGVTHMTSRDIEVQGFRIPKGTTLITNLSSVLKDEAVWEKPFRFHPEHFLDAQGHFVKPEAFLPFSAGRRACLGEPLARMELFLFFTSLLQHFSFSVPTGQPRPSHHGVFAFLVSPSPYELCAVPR
Assay: Inhibition of CYP2D6 (unknown origin) at 10 uM relative to control
Type: ADME
ENDPOINT LABEL: inhibition at 10 µM (%)
Response body: numeric value in %, unit text excluded.

Value of measured inhibition at 10 µM for the entry Cc1n[nH]c(C)c1N1CCN(c2cc(C(=O)O)ccc2Cl)CC1 : 10

So for Cc1n[nH]c(C)c1N1CCN(c2cc(C(=O)O)ccc2F)CC1 , the logged inhibition at 10 µM turned out to be 8.1

Per the records, this compound ( Cc1cc(F)c(N2CCN(c3c(C)n[nH]c3C)CC2)cc1C(=O)O ) has inhibition at 10 µM equal to 9.2

GET /value?item= Cc1n[nH]c(C)c1N1CCN(c2cc(-c3nn[nH]n3)ccc2F)CC1 &field=inhibition at 10 µM returns 0.8

Query Cc1n[nH]c(C)c1N1CCN(c2cc(C(=O)O)ccc2C(F)(F)F)CC1 yields inhibition at 10 µM of 5.9

GET /value?item= Cc1ccc(C(=O)O)cc1N1CCN(c2c(C)n[nH]c2C)CC1 &field=inhibition at 10 µM returns 7.34

====

Assay: AUC (infinity) in male CD-1 mouse at 5 mg/kg, po
Type: ADME, organism-based
Design: time infinity, route oral, dose 5 mg/kg
Settings: in vivo
ENDPOINT LABEL: AUC(0-inf) (ng·h/mL)
API: value field is a number in ng·h/mL; no unit string.

GET /value?item= Cc1n[nH]c(C)c1N1CCN(c2cc(C(=O)O)ccc2F)CC1 &field=AUC(0-inf) returns 16100

====

Test: AUClast in male CD-1 mouse at 5 mg/kg, po
Type: ADME, organism-based
Set-up: time 0 - last, route oral, dose 5 mg/kg
Conditions: in vivo
ENDPOINT LABEL: AUC(0-t) (ng·h/mL)
Quick note: give the figure in ng·h/mL, leave out the unit.

Form field AUC(0-t), entry Cc1n[nH]c(C)c1N1CCN(c2cc(C(=O)O)ccc2F)CC1 : 16000

====

Biological target: UniProtKB P08684
Sequence (P08684 whole entry): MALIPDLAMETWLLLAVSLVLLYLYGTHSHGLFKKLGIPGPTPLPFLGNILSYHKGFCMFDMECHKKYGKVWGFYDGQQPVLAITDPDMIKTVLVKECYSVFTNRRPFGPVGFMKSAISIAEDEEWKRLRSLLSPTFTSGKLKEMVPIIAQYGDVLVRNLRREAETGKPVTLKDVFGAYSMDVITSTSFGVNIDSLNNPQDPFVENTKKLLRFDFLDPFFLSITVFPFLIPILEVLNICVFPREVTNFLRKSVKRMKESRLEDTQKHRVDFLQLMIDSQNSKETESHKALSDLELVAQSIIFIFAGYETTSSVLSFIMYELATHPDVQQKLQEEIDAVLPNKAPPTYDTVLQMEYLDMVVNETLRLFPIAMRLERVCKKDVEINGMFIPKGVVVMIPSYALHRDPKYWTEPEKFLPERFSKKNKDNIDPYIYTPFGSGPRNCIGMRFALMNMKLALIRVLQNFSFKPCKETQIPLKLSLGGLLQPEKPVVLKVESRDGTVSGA
Test: Inhibition of CYP3A4 (unknown origin) at 10 uM relative to control
Type: ADME
Task for the reader: assign each of the following compounds its reported inhibition at 10 µM.
Report only the number, with the unit % understood.

Entry Cc1ccc(C(=O)O)cc1N1CCN(c2c(C)n[nH]c2C)CC1 , inhibition at 10 µM reported as -5.2

For Cc1n[nH]c(C)c1N1CCN(c2cc(C(=O)O)ccc2F)CC1 the compound record lists inhibition at 10 µM as -2.2
